- SYSTEM: human 20S proteasome (Homo sapiens)
MEASUREMENT TYPE: pIC50
FYI, pIC50 means -log10 of a concentration in mol per litre.

*Q* API: value(readout= pIC50, system= human 20S proteasome (Homo sapiens), query= CC(C)C1C(=O)OC1C(=O)N[C@H](C(=O)N[C@H](C(=O)O)C(C)C)C(C)C (stereo partly shown) [Compound 2, Cystargolide B] )
*A* 6.03
